molecular target: Human immunodeficiency virus type 1 reverse transcriptase (Human immunodeficiency virus 1, UniProt Q72547); test: Inhibition of RNA dependent DNA polymerase activity of HIV1 BH10 recombinant reverse transcriptase p66/p51 assessed as residual enzyme activity by poly(rA)n.oligo(dT)12-18-directed incorporation of [3H]dTTP
Items are presented alongside their recorded IC50.
Lab book: enter the figure in µM, no units written.

Examples from the recorded data:
compound	unitOfMeasure	IC50
CC(=O)CC[C@@H]1[C@](C)(CC[C@@]2(O)[C@H](C)CC[C@@H]3OC(C)(C)CCC[C@@]32C)CCC[C@@]1(C)C(=O)Cc1cc(OS(=O)(=O)O)ccc1OS(=O)(=O)O [SHAAGROCKOL B]	µM	8.5
CC1(C)CCC[C@]2(C)OC3CC[C@](C)(C4CC[C@]5(C)C4CC[C@]4(C)c6c(O)ccc(O)c6CC54)[C@]3(C)CCC12 (stereo not given in full) [TOXICOL B]	µM	3.7
CC1=C(Cc2cc(O)ccc2O)[C@]2(C)CCC[C@@](C)(CC[C@@]3(O)[C@H](C)CC[C@@H]4OC(C)(C)CCC[C@@]43C)[C@H]2CC1	µM	2.5

Requested read-out: IC50. Entry: C[C@@H]1CC=C2[C@@H](CCC[C@@]2(C)CC[C@@]2(C)C3=CCCC(C)(C)[C@H]3CC[C@@H]2C)[C@]1(C)Cc1cc(OS(=O)(=O)O)ccc1OS(=O)(=O)O [TOXIUSOL SODIUM]
1.5

Requested read-out: IC50. Entry: CC1(C)CCC[C@]2(C)OC3CC[C@](C)(C4CC[C@]5(C)C4CC[C@]4(C)c6c(OS(=O)(=O)O)ccc(OS(=O)(=O)O)c6CC54)[C@]3(C)CCC12 (stereo not given in full) [TOXICOL A]
3.1
